# growth per record follows
System: HT29 colon
experimental-details: NCI-60 one-dose screen, 48 h (100 = growth as untreated, 0 = no growth, -100 = all killed)
test-context: 10 µM unless noted
This is part of a sample that, as a whole, favours compounds with a hit. Of some 83,000 tested, about 20% had one in any assay.

- compound: "COc1ccc2c(c1)C(=O)N(C)C2C1c2c(cc3c(c2OC)OCO3)CCN1C (stereo not drawn)"
  growth [%]: 33.2
- compound: "Cc1[nH]nc2ccc3nc(-c4cnn(CCO)c4)c4c(c3c12)CCCC4"
  growth [%]: 31.3
- compound: "COc1ccc(Nc2nnc(-c3c[nH]c4ccccc34)o2)cc1"
  growth [%]: 106

====

Test system: SN12C renal
experimental-details: NCI-60 one-dose screen, 48 h
test-context: 10 µM unless noted
Experimental: Growth inhibition of the SN12C human tumor cell line is measured as a screen for anti-cancer activity. Cells are grown in 96 well plates and exposed to the test compound for 48 hours. Compounds are tested at a single concentration, which is 10^-5 M for most compounds. The reported endpoint is percent growth (GI% or GIPRCNT), where numbers from 0 - 100% represent growth inhibition, and numbers from -100% - 0 represent cell death. For example, a value of 40 represents 60% growth inhibition. […]
The panel holds about 83,000 compounds, 20% with a hit somewhere; the sample as a whole holds those more often. Activity calls are given as the source filed them. How the source made its calls: active means growth percent below 10; inactive means the rest.
Labels: t for active, f for inactive

- molecule: "COc1ccc2c(c1)C(Sc1ccc(F)cc1)c1c(nc(N)c(C#N)c1N)O2 (stereo not given)"
  qualitative-label: "f"
- molecule: "O=C1CCC(N2C(=O)c3cccc(NCCCCCC(=O)N4CCN(c5ccc6nc7c(nc6c5C(F)(F)F)C(=O)c5ncccc5C7=O)CC4)c3C2=O)C(=O)N1 (stereo not given)"
  qualitative-label: "t"
- molecule: "COc1ccc(C(=O)NNC(=O)CSc2nc3sc4c(c3c(=O)n2-c2ccc(Cl)cc2)CCCC4)cc1"
  qualitative-label: "f"
- molecule: "COc1ccc(OC)c(Cn2cc(C#N)c(N)c2C(=O)c2ccc(Br)cc2)c1"
  qualitative-label: "f"
- molecule: "Cc1nc(N)ncc1-c1ccc2ncnc(N3CCc4cc(F)c(Cl)cc43)c2c1"
  qualitative-label: "f"
- molecule: "O=C(Nc1ccc(-c2ccc3c(c2)NC(=O)/C3=C\\c2ccc[nH]2)cc1)Nc1ccc(Cl)c(C(F)(F)F)c1"
  qualitative-label: "f"
- molecule: "COc1ccc(S(=O)(=O)Nc2ccc(-c3ccc4c(c3)NC(=O)/C4=C\\c3ccc[nH]3)cc2)cc1OC"
  qualitative-label: "t"
- molecule: "COc1ccc(N=Nc2c(N)nn3c(-c4ccc(OC)c(OC)c4)ccnc23)cc1"
  qualitative-label: "f"
- molecule: "C=CC(=O)Nc1ccc(C(=O)/C=C/c2ccc(N(C)C)cc2)c(O)c1"
  qualitative-label: "t"
- molecule: "Nc1cc(-c2c[nH]c3ccc(Cl)cc23)nc2cc(-c3c[nH]c4ccccc34)nn12"
  qualitative-label: "t"
- molecule: "c1n[nH]cc1-c1nc2ccc3cn[nH]c3c2c2c1CCCC2"
  qualitative-label: "f"
- molecule: "COc1ccc2[nH]cc(-c3cc4nc(-c5cn(C)c6ncccc56)cc(N)n4n3)c2c1"
  qualitative-label: "f"
- molecule: "CCCn1c(NC(=O)c2cccc(C(N)=O)c2)nc2cc(CN3CCCCC3)ccc21"
  qualitative-label: "f"
- molecule: "CS(=O)(=O)Nc1cc(-c2ccc3ncnc(Nc4ccc(OCc5cccnc5)c(Cl)c4)c3c2)cnc1Cl"
  qualitative-label: "t"
- molecule: "N#Cc1cc(-c2ccc3ncnc(N4CCc5cc(F)c(Cl)cc54)c3c2)cnc1N"
  qualitative-label: "f"
- molecule: "Cc1cc(C(NC(=O)CCCCCNc2cccc3c2C(=O)N(C2CCC(=O)CC2=O)C3=O)c2cccc(N(C)C)c2)c(O)c2ncccc12 (stereo not given)"
  qualitative-label: "f"
- molecule: "COc1ccc(NC(=O)Cn2c(/C=C/c3cccc(Br)c3)nc3ccccc3c2=O)cc1"
  qualitative-label: "t"
- molecule: "COc1ccc2[nH]c(=O)c(CSc3ccccc3Nc3nccc(-c4ccc(Cl)cc4)n3)cc2c1"
  qualitative-label: "t"
- molecule: "Cc1ccccc1Nc1nnc(-c2c[nH]c3ccccc23)o1"
  qualitative-label: "f"
- molecule: "CC(C)(C)OC(=O)N1C/C(=C\\c2ccc(F)cc2)C(=O)/C(=C/c2ccc(F)cc2)C1"
  qualitative-label: "t"
- molecule: "COC(=O)c1cc(C(=O)C(C)(C)C)n2c3ccccc3c3ccccc3c12"
  qualitative-label: "f"
- molecule: "COc1c2c(c(Br)c3c1C(CCc1ccccc1)N(C)CC3)OCO2 (stereo not given)"
  qualitative-label: "f"
- molecule: "CCCCC[C@@H]1C/C=C(\\C)[C@@H](O)C(C)(C)C(=O)[C@@H](C)/C=C(\\C)[C@@H]2C[C@H](O)C[C@](O)(CC(=O)O1)O2"
  qualitative-label: "f"
- molecule: "O=C(NNC(=O)c1ccc(OCc2nc3ccc(Cl)cc3[nH]2)cc1)Nc1ccc(Cl)c(Cl)c1"
  qualitative-label: "f"
- molecule: "O=C(N/N=C/c1c[nH]c2ccccc12)Nc1ccccc1Cl"
  qualitative-label: "t"
- molecule: "CCCCCCCCc1ccc(C(=O)Nc2ccc(C)cc2C(=O)O)cc1"
  qualitative-label: "f"
- molecule: "Cc1ccc(Cl)cc1NC(=O)Nc1nc2ccc([N+](=O)[O-])cc2s1"
  qualitative-label: "t"
- molecule: "O=C(N/N=C/c1c[nH]c2ccccc12)Nc1ccc(F)c(Cl)c1"
  qualitative-label: "f"
- molecule: "O=[N+]([O-])c1cccc(-c2nnc3c(/C=C/c4ccc(F)cc4)nc4ccccc4n23)c1"
  qualitative-label: "f"
- molecule: "COc1ccc(NC2=C(I)C(=O)C(C)=C(C)C2=O)cc1"
  qualitative-label: "f"

====

Test system: NCI-H522 lung
experimental-details: NCI-60 one-dose screen, 48 h (100 = growth as untreated, 0 = no growth, -100 = all killed)
test-context: 10 µM unless noted
About 83,000 compounds went through this panel and 20% of them were active in at least one assay; those are over-represented in the sample as a whole.

- given-smiles: "O=C(Nc1nc2ccccc2s1)Nc1ccccc1Cl"
  growth, %: 64.1
- given-smiles: "CCN1CCN(Cc2ccc(C(=O)Nc3cccc(Nc4ccc5c(OC)cccc5n4)c3)cc2C(F)(F)F)CC1"
  growth, %: -83.3
- given-smiles: "COc1ccc2c(c1)N=c1c-2cc2c(O)[nH]c(=S)n2c1=O"
  growth, %: -9.92
- given-smiles: "NNc1ncnc2sc3c(c12)CCN(Cc1ccccc1)C3"
  growth, %: 2.62

====

# key: entry, value: growth
Test system: OVCAR-5 ovarian
experimental-details: NCI-60 one-dose screen, 48 h (100 = growth as untreated, 0 = no growth, -100 = all killed)
test-context: 10 µM unless noted
This is part of a sample that, as a whole, favours compounds with a hit. Of some 83,000 tested, about 20% had one in any assay.

- given-smiles: "COc1ccc(N=Nc2c(N)nn3c(-c4ccc5c(c4)C=S=C5)ccnc23)cc1"
  growth, %: 80.4
- given-smiles: "C/C(=N\\Nc1ccc(S(N)(=O)=O)cc1)c1cnn(-c2cc(=O)[nH]c3ccc(Br)cc23)c1C"
  growth, %: 81.4
- given-smiles: "Nc1nn2c(-c3cc4ccccc4oc3=O)ccnc2c1N=Nc1ccccc1"
  growth, %: 82.3

====

growth by entry:
System: OVCAR-4 ovarian
experimental-details: NCI-60 one-dose screen, 48 h (100 = growth as untreated, 0 = no growth, -100 = all killed)
test-context: 10 µM unless noted
Compounds without any hit were thinned out: in the full panel of roughly 83,000, 20% have a hit.

- compound: "O=C(N/N=C/c1ccc(Br)o1)c1[nH]c2ccc(Br)cc2c1-c1ccccc1"
  measurement-unit: "%"
  growth: -17.2
- compound: "N#Cc1cc(-c2ccnc(Nc3ccc(N4CCN(C5COC5)CC4)cc3)n2)ccc1N1CCCC1"
  measurement-unit: "%"
  growth: 43.9
- compound: "O=C(c1cc2cc(OCCCN3CCC3)ccc2[nH]1)N1C[C@@H](CCl)c2c1cc(OCc1ccccc1)c1ccccc21"
  measurement-unit: "%"
  growth: -57.7
- compound: "COc1ccc(-c2cc(C(=O)N=Nc3c(O)[nH]c4ccc(Cl)cc34)c3ccccc3n2)cc1OC"
  measurement-unit: "%"
  growth: 116
- compound: "FC(F)(F)CN1CCN(CCn2c(C(F)(F)F)cc3c(Cl)ncnc32)CC1"
  measurement-unit: "%"
  growth: 21.5
- compound: "N#CC1=C(c2cccs2)Nc2c(c(-c3ccccc3)nn2-c2ccccc2)C12C(=O)Nc1ccc(Cl)cc12 (stereo not drawn)"
  measurement-unit: "%"
  growth: 27.2
- compound: "O=C(Nc1ccc(Br)cc1)Nc1ccc(-c2ccc3c(c2)NC(=O)/C3=C\\c2ccc[nH]2)cc1"
  measurement-unit: "%"
  growth: 33.9
- compound: "Cc1ccccc1NC(=O)c1cccc(NC(=O)CCl)c1"
  measurement-unit: "%"
  growth: 73.7
